Just for reference, patent US9404081B2 is where these values come from.

- Tested on: PKR T384W (Homo sapiens, UniProt P30613, T384W)
- Sequence (P30613 whole entry T384W): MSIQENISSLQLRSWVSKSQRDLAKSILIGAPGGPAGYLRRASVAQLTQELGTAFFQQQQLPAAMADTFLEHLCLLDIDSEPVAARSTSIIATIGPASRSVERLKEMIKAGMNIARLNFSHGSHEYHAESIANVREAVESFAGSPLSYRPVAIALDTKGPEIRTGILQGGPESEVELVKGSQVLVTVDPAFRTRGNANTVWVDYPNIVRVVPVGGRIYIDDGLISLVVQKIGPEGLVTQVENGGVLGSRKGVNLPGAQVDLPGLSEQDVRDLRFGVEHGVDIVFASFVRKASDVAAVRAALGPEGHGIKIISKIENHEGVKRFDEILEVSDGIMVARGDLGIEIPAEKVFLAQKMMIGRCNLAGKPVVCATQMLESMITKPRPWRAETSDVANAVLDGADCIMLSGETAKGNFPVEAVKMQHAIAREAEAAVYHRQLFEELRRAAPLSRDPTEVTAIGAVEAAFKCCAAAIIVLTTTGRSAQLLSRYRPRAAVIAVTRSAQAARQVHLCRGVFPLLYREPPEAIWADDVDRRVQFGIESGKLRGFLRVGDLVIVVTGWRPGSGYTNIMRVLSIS
- Assay: PKR T384W Single Point Percent Activation Assay
- Format: biochemical
- Test context: read-out: Act. % 384W
Value kind: activation at 1 µM

Some solved entries appear below for comparison.
CC1CN(Cc2ccccc2)CC(C)N1C(=O)c1ccc(NS(=O)(=O)c2cccc3cccnc23)cc1 (centres unmarked); 101 to 500%
CC(c1ccccc1F)N1CCN(C(=O)c2ccc(NS(=O)(=O)c3cccc4cccnc34)cc2)[C@H](C)C1 (some centres unmarked); 1 to 100%
O=C(c1ccc(NS(=O)(=O)c2cccc3cccnc23)cc1)N1CCN(C[C@@H]2CCOC2)CC1; 101 to 500%

Please look at the items below and tell me activation at 1 µM for each one, in order.
1. C[C@@H]1CN(Cc2ccc(Cl)c(F)c2)CCN1C(=O)c1ccc(NS(=O)(=O)c2cccc3cccnc23)cc1
2. CC(c1ccc(F)c(F)c1F)N1CCN(C(=O)c2ccc(NS(=O)(=O)c3cccc4cccnc34)cc2)[C@H](C)C1 (some centres unmarked)
3. C[C@H]1CN(Cc2ccccc2F)CCN1C(=O)c1ccc(NS(=O)(=O)c2cccc3cccnc23)cc1
4. C[C@H]1CN(Cc2cc(F)cc(F)c2)CCN1C(=O)c1ccc(NS(=O)(=O)c2cccc3cccnc23)cc1Cl
5. C[C@H]1CN(CC2CCC2)CCN1C(=O)c1ccc(NS(=O)(=O)c2cccc3cccnc23)cc1

1. 1 to 100%
2. 101 to 500%
3. 101 to 500%
4. 1 to 100%
5. 101 to 500%

----------
- Tested on: PKR wt (Homo sapiens, UniProt P30613)
- Sequence (P30613 whole entry): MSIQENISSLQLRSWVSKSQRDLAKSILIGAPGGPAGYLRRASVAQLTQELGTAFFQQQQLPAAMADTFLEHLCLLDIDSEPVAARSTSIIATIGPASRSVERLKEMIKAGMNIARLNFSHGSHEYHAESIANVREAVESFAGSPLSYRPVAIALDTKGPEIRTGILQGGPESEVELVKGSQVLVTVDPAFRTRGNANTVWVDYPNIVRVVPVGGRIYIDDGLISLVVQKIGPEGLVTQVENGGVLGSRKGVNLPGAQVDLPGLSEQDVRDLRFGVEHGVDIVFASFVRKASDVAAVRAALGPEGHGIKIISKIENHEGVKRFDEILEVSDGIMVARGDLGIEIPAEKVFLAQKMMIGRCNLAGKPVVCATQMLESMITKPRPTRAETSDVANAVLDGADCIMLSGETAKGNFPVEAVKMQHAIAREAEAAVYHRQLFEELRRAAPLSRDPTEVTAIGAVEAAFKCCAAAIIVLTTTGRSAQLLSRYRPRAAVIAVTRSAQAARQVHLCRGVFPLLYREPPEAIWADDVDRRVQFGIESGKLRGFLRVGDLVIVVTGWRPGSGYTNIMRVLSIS
- Assay: PKR WT Single Point Percent Activation Assay
- Type: biochemical
Value kind: activation at 1 µM

Known activation at 1 µM results, listed for orientation:
C[C@@H]1CN(CC2CCOC2)CCN1C(=O)c1ccc(NS(=O)(=O)c2cccc3cccnc23)cc1 (stereo partly shown); 101 to 500%
C[C@@H]1CN(Cc2ccccc2F)CCN1C(=O)c1ccc(NS(=O)(=O)c2cccc3cccnc23)cc1; 101 to 500%
O=C(c1ccc(NS(=O)(=O)c2cccc3cccnc23)cc1)N1CCN(CC2CC2)c2ccccc21; 101 to 500%
CC(c1ccc(F)cc1)N1CCN(C(=O)c2ccc(NS(=O)(=O)c3cccc4cccnc34)cc2)[C@@H](C)C1 (stereo partly shown); 101 to 500%
CC1CN(Cc2ccc(Cl)c(F)c2)CC(C)N1C(=O)c1ccc(NS(=O)(=O)c2cccc3cccnc23)cc1 (stereo not shown); 101 to 500%
C[C@@H]1CN(Cc2ccc(Cl)c(F)c2)CCN1C(=O)c1ccc(NS(=O)(=O)c2cccc3cccnc23)cc1; 101 to 500%

Quick request: activation at 1 µM for each listed item, please.
1. CC(c1ccccc1F)N1CCN(C(=O)c2ccc(NS(=O)(=O)c3cccc4cccnc34)cc2)[C@H](C)C1 (stereo partly shown)
2. CC1CN(Cc2cc(F)cc(F)c2F)CC(C)N1C(=O)c1ccc(NS(=O)(=O)c2cccc3cccnc23)cc1 (stereo not shown)
3. C[C@H]1CN(CC2CCOC2)CCN1C(=O)c1ccc(NS(=O)(=O)c2cccc3cccnc23)cc1 (stereo partly shown)
4. C[C@@H]1CN(Cc2ccccc2)CCN1C(=O)c1ccc(NS(=O)(=O)c2cccc3cccnc23)cc1
5. CC(c1ccc(F)cc1F)N1CCN(C(=O)c2ccc(NS(=O)(=O)c3cccc4cccnc34)cc2)[C@@H](C)C1 (stereo partly shown)
6. CC(c1c(F)cccc1F)N1CCN(C(=O)c2ccc(NS(=O)(=O)c3cccc4cccnc34)cc2)[C@H](C)C1 (stereo partly shown)

1. 1 to 100%
2. 101 to 500%
3. 101 to 500%
4. 101 to 500%
5. 101 to 500%
6. 1 to 100%

Give activation at 1 µM for each of the items listed below.
1. CC(C)OC(=O)N1CCN(C(=O)c2ccc(NS(=O)(=O)c3cccc4cccnc34)cc2)[C@@H](C)C1
2. CC(c1ccc(F)c(F)c1F)N1CCN(C(=O)c2ccc(NS(=O)(=O)c3cccc4cccnc34)cc2)[C@H](C)C1 (stereo partly shown)
3. O=C(c1ccc(NS(=O)(=O)c2cccc3cccnc23)cc1)N1CCN(Cc2ccc(F)cc2)C[C@@H]1c1ccccc1
4. CC(c1c(F)cc(F)cc1F)N1CCN(C(=O)c2ccc(NS(=O)(=O)c3cccc4cccnc34)cc2)[C@@H](C)C1 (stereo partly shown)

1. 1 to 100%
2. 101 to 500%
3. 1 to 100%
4. 101 to 500%
